As a worked illustration, we turn to pIC50 data collected for ROCK2 (human).
pIC50: −log10 of the molar value.

NC(CNC(=S)Nc1ccc(OC(F)(F)F)cc1)c1ccc(C(=O)Nc2ccncc2)cc1 (centres undefined): 5.30 to 6.30
COc1cccc(CC(=O)N2CCCC2C(N)c2ccc(C(=O)Nc3ccncc3)cc2)c1 (centres undefined): 5.30 to 6.30
NC(c1ccc(C(=O)Nc2ccncc2)cc1)C1CCCN1C(=O)Cc1ccc(C(F)(F)F)cc1 (centres undefined): 5.30 to 6.30
NC(CC(=O)NC(c1ccccc1)c1ccccc1)c1ccc(C(=O)Nc2ccncc2)cc1 (centres undefined): 6.30 to 7.30
NC(CNC(=O)C1CCc2ccccc2C1)c1ccc(C(=O)Nc2ccncc2)cc1 (centres undefined): 5.30 to 6.30

Lookup: Give the value of pIC50 reported for the following: CC(=O)NCCNC(=O)CC(N)c1ccc(C(=O)Nc2ccncc2)cc1 (centres undefined)
Found: 6.30 to 7.30

Lookup: Give the value of pIC50 reported for the following: CN(CC(N)c1ccc(C(=O)Nc2ccncc2)cc1)C(=O)Cc1c(F)cccc1Cl (centres undefined)
Found: 5.30 to 6.30

Lookup: Give the value of pIC50 reported for the following: CN(CC(N)c1ccc(C(=O)Nc2ccncc2)cc1)C(=O)C(C)(C)c1ccc(F)c(F)c1 (centres undefined)
Found: 5.30 to 6.30

Lookup: Give the value of pIC50 reported for the following: CNS(=O)(=O)c1ccc(C(=O)NCC(N)c2ccc(C(=O)Nc3ccncc3)cc2)cc1 (centres undefined)
Found: 5.30 to 6.30

====

Molecular target: ROCK2 (human) (UniProt O75116)
Sequence (O75116 whole entry, looked up): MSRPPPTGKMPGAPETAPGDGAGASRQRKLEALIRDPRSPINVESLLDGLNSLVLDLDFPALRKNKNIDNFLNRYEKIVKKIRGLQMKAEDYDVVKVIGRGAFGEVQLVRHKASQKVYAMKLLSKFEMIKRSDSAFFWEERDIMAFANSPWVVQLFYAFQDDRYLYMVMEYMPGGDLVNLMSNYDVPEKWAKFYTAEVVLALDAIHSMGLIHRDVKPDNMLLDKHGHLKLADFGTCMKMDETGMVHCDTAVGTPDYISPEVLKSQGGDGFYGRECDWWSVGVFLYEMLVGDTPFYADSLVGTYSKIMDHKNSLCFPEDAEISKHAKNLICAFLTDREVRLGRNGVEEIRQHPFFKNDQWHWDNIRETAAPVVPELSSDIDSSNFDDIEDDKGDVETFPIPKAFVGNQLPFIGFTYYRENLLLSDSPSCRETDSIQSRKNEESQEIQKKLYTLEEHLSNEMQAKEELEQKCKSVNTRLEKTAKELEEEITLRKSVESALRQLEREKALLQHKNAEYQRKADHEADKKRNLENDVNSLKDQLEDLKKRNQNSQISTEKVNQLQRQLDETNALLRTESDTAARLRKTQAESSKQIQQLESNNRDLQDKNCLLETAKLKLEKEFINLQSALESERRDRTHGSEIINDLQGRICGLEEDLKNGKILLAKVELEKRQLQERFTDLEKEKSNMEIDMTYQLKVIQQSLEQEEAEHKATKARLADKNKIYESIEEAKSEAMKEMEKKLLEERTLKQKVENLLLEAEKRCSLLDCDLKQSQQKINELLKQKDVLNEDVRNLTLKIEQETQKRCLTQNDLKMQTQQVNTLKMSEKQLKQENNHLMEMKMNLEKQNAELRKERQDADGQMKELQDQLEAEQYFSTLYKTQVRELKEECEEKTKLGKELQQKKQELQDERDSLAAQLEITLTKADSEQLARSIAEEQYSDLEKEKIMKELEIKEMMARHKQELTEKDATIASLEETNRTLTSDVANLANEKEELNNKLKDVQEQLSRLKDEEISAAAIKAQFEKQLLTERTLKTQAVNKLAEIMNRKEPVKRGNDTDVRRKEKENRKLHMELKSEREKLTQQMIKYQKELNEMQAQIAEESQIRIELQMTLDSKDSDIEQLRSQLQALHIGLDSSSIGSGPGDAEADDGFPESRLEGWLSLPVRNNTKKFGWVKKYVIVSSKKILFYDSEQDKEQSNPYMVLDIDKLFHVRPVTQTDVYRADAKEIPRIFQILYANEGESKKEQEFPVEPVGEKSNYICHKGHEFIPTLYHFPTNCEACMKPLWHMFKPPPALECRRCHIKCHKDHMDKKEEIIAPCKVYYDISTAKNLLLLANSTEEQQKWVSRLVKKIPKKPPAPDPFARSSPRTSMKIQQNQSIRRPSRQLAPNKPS
pIC50: −log10 of the molar value.
Property: pIC50

See these solved cases before continuing.
NC(CC(=O)NC1CCCCC1)c1ccc(C(=O)Nc2ccncc2)cc1 (stereo not given): 6.30 to 7.30
CCNC(=S)NCC(N)c1ccc(C(=O)Nc2ccncc2)cc1 (stereo not given): 5.30 to 6.30
NC(CNC(=O)c1ccc2[nH]ccc2c1)c1ccc(C(=O)Nc2ccncc2)cc1 (stereo not given): 6.30 to 7.30
NC(c1ccc(C(=O)Nc2ccncc2)cc1)C1CCCN1C(=O)C1(c2cccs2)CC1 (stereo not given): 5.30 to 6.30

Consider now this further compound.
Lookup: Give the value of pIC50 reported for the following: N#CCCN(C(=O)CC(N)c1ccc(C(=O)Nc2ccncc2)cc1)C1CC1 (stereo not given)
Found: 5.30 to 6.30

====

pIC50: −log10 of the molar value.
As a worked illustration, we turn to pIC50 data collected for ROCK2 (human).

NC(CNC(=O)c1cc2cc(Cl)ccc2o1)c1ccc(C(=O)Nc2ccncc2)cc1 (stereo not given): 5.30 to 6.30

Lookup: Output reported pIC50 of the molecule COc1ccc(CC(=O)N2CCCC2C(N)c2ccc(C(=O)Nc3ccncc3)cc2)c(OC)c1 (stereo not given) on ROCK2 (human).
Found: 5.30 to 6.30

Lookup: Output reported pIC50 of the molecule NC(CNC(=O)c1cccc(S(=O)(=O)Nc2ccccc2)c1)c1ccc(C(=O)Nc2ccncc2)cc1 (stereo not given) on ROCK2 (human).
Found: 5.30 to 6.30

Lookup: Output reported pIC50 of the molecule NC(c1ccc(C(=O)Nc2ccncc2)cc1)C1CCCN1C(=O)Cc1csc2ccccc12 (stereo not given) on ROCK2 (human).
Found: 6.30 to 7.30

Lookup: Output reported pIC50 of the molecule CN(C)c1ccc(NC(=O)NCC(N)c2ccc(C(=O)Nc3ccncc3)cc2)cc1 (stereo not given) on ROCK2 (human).
Found: 6.30 to 7.30

Lookup: Output reported pIC50 of the molecule NC(CNC(=O)C1Cc2ccccc21)c1ccc(C(=O)Nc2ccncc2)cc1 (stereo not given) on ROCK2 (human).
Found: 6.30 to 7.30

Lookup: Output reported pIC50 of the molecule NC(CNC(=O)C1(c2ccc(Cl)c(Cl)c2)CCC1)c1ccc(C(=O)Nc2ccncc2)cc1 (stereo not given) on ROCK2 (human).
Found: 6.30 to 7.30

Lookup: Output reported pIC50 of the molecule NC(CNC(=O)c1ccsc1)c1ccc(C(=O)Nc2ccncc2)cc1 (stereo not given) on ROCK2 (human).
Found: 6.30 to 7.30

Lookup: Output reported pIC50 of the molecule NC(c1ccc(C(=O)Nc2ccncc2)cc1)C1CCCN1C(=O)C1CCc2ccccc21 (stereo not given) on ROCK2 (human).
Found: 5.30 to 6.30

Lookup: Output reported pIC50 of the molecule COC(=O)C(C)NC(=O)CC(N)c1ccc(C(=O)Nc2ccncc2)cc1 (stereo not given) on ROCK2 (human).
Found: 6.30 to 7.30

Lookup: Output reported pIC50 of the molecule NC(c1ccc(C(=O)Nc2ccncc2)cc1)C1CCCN1C(=O)C1(c2ccc(F)cc2)CC1 (stereo not given) on ROCK2 (human).
Found: 5.30 to 6.30

Lookup: Output reported pIC50 of the molecule NC(CNC(=O)c1cccs1)c1ccc(C(=O)Nc2ccncc2)cc1 (stereo not given) on ROCK2 (human).
Found: 6.30 to 7.30

Lookup: Output reported pIC50 of the molecule NC(CC(=O)NCc1ccccc1Cl)c1ccc(C(=O)Nc2ccncc2)cc1 (stereo not given) on ROCK2 (human).
Found: 6.30 to 7.30

Lookup: Output reported pIC50 of the molecule NC(CNC(=O)CCc1cccnc1)c1ccc(C(=O)Nc2ccncc2)cc1 (stereo not given) on ROCK2 (human).
Found: 5.30 to 6.30

====

As a worked illustration, we turn to pIC50 data collected for ROCK2 (human) (UniProt O75116).
pIC50: −log10 of the molar value.

Lookup: Give the value of pIC50 reported for the following: COc1ccccc1CC(=O)N1CCCC1C(N)c1ccc(C(=O)Nc2ccncc2)cc1 (centres undefined)
Found: 5.30 to 6.30

Lookup: Give the value of pIC50 reported for the following: CN(CC(N)c1ccc(C(=O)Nc2ccncc2)cc1)C(=O)C1CCSc2ccc(F)cc21 (centres undefined)
Found: 4.30 to 5.30

Lookup: Give the value of pIC50 reported for the following: Cc1cccc(Cl)c1CNC(=O)CC(N)c1ccc(C(=O)Nc2ccncc2)cc1 (centres undefined)
Found: 6.30 to 7.30

Lookup: Give the value of pIC50 reported for the following: Cc1ccc2[nH]cc(CCNC(=O)CC(N)c3ccc(C(=O)Nc4ccncc4)cc3)c2c1 (centres undefined)
Found: 6.30 to 7.30

Lookup: Give the value of pIC50 reported for the following: CN(CC(N)c1ccc(C(=O)Nc2ccncc2)cc1)C(=O)C1(c2ccc(F)c(F)c2)CCCC1 (centres undefined)
Found: 5.30 to 6.30

Lookup: Give the value of pIC50 reported for the following: NC(CC(=O)NC1CCN(Cc2ccccc2)CC1)c1ccc(C(=O)Nc2ccncc2)cc1 (centres undefined)
Found: 6.30 to 7.30

Lookup: Give the value of pIC50 reported for the following: CN(CC(N)c1ccc(C(=O)Nc2ccncc2)cc1)C(=O)C1(c2ccccc2)CC1 (centres undefined)
Found: 5.30 to 6.30

Lookup: Give the value of pIC50 reported for the following: CC(C)C(C(=O)N1CCCC1C(N)c1ccc(C(=O)Nc2ccncc2)cc1)c1ccc(Cl)cc1 (centres undefined)
Found: 5.30 to 6.30

Lookup: Give the value of pIC50 reported for the following: CC(=NOCC(=O)NCC(N)c1ccc(C(=O)Nc2ccncc2)cc1)c1ccccc1 (centres undefined)
Found: 6.30 to 7.30

====

As a worked illustration, we turn to IC50 data collected for ROCK2 (human).

See these solved cases before continuing.
CN(CC(N)c1ccc(C(=O)Nc2ccncc2)cc1)C(=O)C1(c2ccc(Cl)cc2Cl)CC1 (stereo not given): 500 to 5000 nM
CS(=O)(=O)c1cccc(C(=O)NCC(N)c2ccc(C(=O)Nc3ccncc3)cc2)c1 (stereo not given): 500 to 5000 nM
CCCCC(=O)NCC(N)c1ccc(C(=O)Nc2ccncc2)cc1 (stereo not given): 500 to 5000 nM
COc1ccc2c(c1)CCCC2C(=O)NCC(N)c1ccc(C(=O)Nc2ccncc2)cc1 (stereo not given): 50 to 500 nM
NC(CNC(=O)C1CCCCC1)c1ccc(C(=O)Nc2ccncc2)cc1 (stereo not given): 500 to 5000 nM
CN(CC(N)c1ccc(C(=O)Nc2ccncc2)cc1)C(=O)C1(c2ccc(Cl)cc2)CCCC1 (stereo not given): 500 to 5000 nM
CN(CC(N)c1ccc(C(=O)Nc2ccncc2)cc1)C(=O)Cc1ccc(F)cc1Cl (stereo not given): 500 to 5000 nM
NC(CC(=O)NCc1cc(Cl)ccc1Cl)c1ccc(C(=O)Nc2ccncc2)cc1 (stereo not given): 50 to 500 nM
NC(CC(=O)NCCc1cccc(F)c1)c1ccc(C(=O)Nc2ccncc2)cc1 (stereo not given): 500 to 5000 nM
COCC(C)NC(=O)CC(N)c1ccc(C(=O)Nc2ccncc2)cc1 (stereo not given): 50 to 500 nM

Lookup: Give the value of IC50 reported for the following: NC(CC(=O)NC1Cc2ccccc2C1)c1ccc(C(=O)Nc2ccncc2)cc1 (stereo not given)
Found: 50 to 500 nM

Lookup: Give the value of IC50 reported for the following: Cc1cccc(CC(=O)N2CCCC2C(N)c2ccc(C(=O)Nc3ccncc3)cc2)c1 (stereo not given)
Found: 500 to 5000 nM

Lookup: Give the value of IC50 reported for the following: CC(C)CC(=O)NCC(N)c1ccc(C(=O)Nc2ccncc2)cc1 (stereo not given)
Found: 500 to 5000 nM

Lookup: Give the value of IC50 reported for the following: CCNS(=O)(=O)c1cccc(C(=O)NCC(N)c2ccc(C(=O)Nc3ccncc3)cc2)c1 (stereo not given)
Found: 500 to 5000 nM

Lookup: Give the value of IC50 reported for the following: CC(C)(C(=O)N1CCCC1C(N)c1ccc(C(=O)Nc2ccncc2)cc1)c1ccc(Cl)c(Cl)c1 (stereo not given)
Found: 500 to 5000 nM

Lookup: Give the value of IC50 reported for the following: NC(c1ccc(C(=O)Nc2ccncc2)cc1)C1CCCN1C(=O)Cc1ccc(F)cc1 (stereo not given)
Found: 500 to 5000 nM

Lookup: Give the value of IC50 reported for the following: NC(CNC(=O)Nc1ccc(F)cc1)c1ccc(C(=O)Nc2ccncc2)cc1 (stereo not given)
Found: 50 to 500 nM

Lookup: Give the value of IC50 reported for the following: CCCOc1ccc(C(=O)NCC(N)c2ccc(C(=O)Nc3ccncc3)cc2)cc1 (stereo not given)
Found: 500 to 5000 nM

Lookup: Give the value of IC50 reported for the following: NC(CC(=O)NCc1ccc(OC(F)(F)F)cc1)c1ccc(C(=O)Nc2ccncc2)cc1 (stereo not given)
Found: 50 to 500 nM

Lookup: Give the value of IC50 reported for the following: NC(CNC(=O)C1(c2ccc(F)c(F)c2)CCCC1)c1ccc(C(=O)Nc2ccncc2)cc1 (stereo not given)
Found: 50 to 500 nM
